assaySummary: compound binding in COS7 lysate, probe aLAP1, primary screen, cell lysate, small-molecule microarray (AID 1124);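 note: lysate comes from COS7 cells expressing LAP1 and is applied at 0.3 µg/mL; score merges spot fluorescence near 667 nm with signal-to-noise over triplicate slides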
conditionLabel: probe aLAP1, fluorescence, higher = more signal
propertyLabel: composite z-score

{"molecule": "C=CCOC(=O)[C@@H]1[C@H]2C(=O)O[C@H](c3ccccc3)[C@H](c3ccccc3)N2[C@H](c2ccc(OCCOC(=O)[C@H]3C[C@H]4C(=O)N[C@@H](CCCCN(C)C)C(=O)N4[C@H]3c3cccc(OCCO)c3)cc2)[C@@]12C(=O)Nc1ccccc12", "composite z-score": 0.781}
{"molecule": "C=C(CCCC)C(=O)CC[C@H](OC(=O)c1ccccc1-c1ccccc1C(=O)O)c1cccc(OCCO)c1", "composite z-score": 1.07}

INPUT: Reported composite z-score for COc1ccc([Si](C)(C)[C@H]2[C@H](CC(=O)N(CCO)Cc3ccccc3)O[C@@]3(C(=O)N(Cc4ccc(N5C(=O)c6cccc7cccc5c67)cc4)c4ccccc43)[C@@H]2C)cc1 : what is it?
OUTPUT: 0.801

INPUT: Reported composite z-score for COCCCNC(=O)[C@@]1(CCC(=O)OC(C)(C)C)N=C(c2ccc(OCCCO)cc2)O[C@H]1c1ccccc1 : what is it?
OUTPUT: 0.584

INPUT: Reported composite z-score for CCCCCCCCCCC(O)C1C=CC2C(=O)N(C)C(=O)C2N1Nc1ccccc1 (stereo unspecified) : what is it?
OUTPUT: 0.478

INPUT: Reported composite z-score for COCCCNC(=O)[C@@]1(Cc2ccccc2I)c2ccccc2C(=O)N(Cc2ccccc2C(F)(F)F)[C@H]1c1ccc(CO)cc1 : what is it?
OUTPUT: -0.462
